PROTOCOL: Plasma binding
Format: in vitro ADME
CONDITION_PARAMETERS: plasma
Measured % plasma binding values are reported for all entries that follow.
# unit: % | format: bare number

Sample answers from the record:
Cc1cc(F)ccc1-c1cccc(Nc2ccccc2)n1	99.9
c1ccc(-c2cccc(-c3cn(-c4ccncc4)nn3)c2)cc1	99.7

QUERY: Given "Cc1cc(F)ccc1-c1cccc(-c2cn(-c3ccncc3)nn2)c1" , state its recorded % plasma binding.
RESULT: 99.5

QUERY: Which value of % plasma binding has been reported for "O=C(Nc1cccc(-c2ccccc2)c1)c1cccc(C(F)(F)F)c1" in the records?
RESULT: 99.9

QUERY: // returns reported % plasma binding for input "Cc1cc(F)ccc1-c1cccc(NC(=O)c2ccccc2)c1"
RESULT: 99.8

----------
Let's look at some molecules and their measured Cytotoxicity at 20× MIC HuVEC.
Tested on: HUVEC (Human Umbilical Vein Endothelial Cells)
PROTOCOL: Cytotoxicity, propidium iodide fluorescence, HuVEC cells
Assay type: cell-based
Design: key: % cytotoxicity relative to positive control (100% cell lysis)
CONDITION_PARAMETERS: 20× MIC, 24 h, relative to positive control (100% cell lysis)
In your answer, state the number alone without any accompanying words.

Cc1cc(F)ccc1-c1cccc(-c2cn(-c3ccncc3)nn2)c1	19
Cc1cc(F)ccc1-c1cccc(Nc2ccccc2)n1	21
Cc1cc(F)ccc1-c1cccc(NC(=O)c2cccc(Cl)c2)n1	10
c1ccc(-c2cccc(-c3cn(-c4ccncc4)nn3)c2)cc1	21
Cc1cc(F)ccc1-c1cccc(NC(=O)c2ccccc2)c1	14

Now, please, on to the next molecule.
QUERY: Tell me the measured Cytotoxicity at 20× MIC HuVEC of "O=C(Nc1cccc(-c2ccccc2)c1)c1cccc(C(F)(F)F)c1" , please.
RESULT: 14

----------
Test system: CYP (isoform not given)
PROTOCOL: HLM CYP inhibition
CONDITION_PARAMETERS: human, human liver microsomes
OUTCOME_MEASURE: IC50 (µM)
Numbers only here, please. The scale is µM.

The examples below pair each entry with its known result.
Cc1cc(F)ccc1-c1cccc(Nc2ccccc2)n1	13.5
c1ccc(-c2cccc(-c3cn(-c4ccncc4)nn3)c2)cc1	1.48

Attention now turns to another entry.
QUERY: Would you kindly share the measured IC50 for "Cc1cc(F)ccc1-c1cccc(-c2cn(-c3ccncc3)nn2)c1" ?
RESULT: 3.55

----------
Each record here notes measured Human Liver Microsomes Intrinsic Clearance (CLint).
Provide the reading as a plain figure in mL/min/g liver.

Field: example entries. Status: answers known.
Cc1cc(F)ccc1-c1cccc(NC(=O)c2cccc(Cl)c2)n1	1.51
Cc1cc(F)ccc1-c1cccc(Nc2ccccc2)n1	5.38
Cc1cc(F)ccc1-c1cccc(-c2cn(-c3ccncc3)nn2)c1	0.37
c1ccc(-c2cccc(-c3cn(-c4ccncc4)nn3)c2)cc1	1.28

QUERY: Which Human Liver Microsomes Intrinsic Clearance (CLint) value is on record for "O=C(Nc1cccc(-c2ccccc2)c1)c1cccc(C(F)(F)F)c1" ?
RESULT: 4.35

QUERY: Given "Cc1cc(F)ccc1-c1cccc(NC(=O)c2ccccc2)c1" , state its recorded Human Liver Microsomes Intrinsic Clearance (CLint).
RESULT: 2.12

----------
PROTOCOL: Serum binding
Type: in vitro ADME
% serum binding values for the compounds below.
# output: bare number, implied unit %

O=C(Nc1cccc(-c2ccccc2)c1)c1cccc(C(F)(F)F)c1	99.9
Cc1cc(F)ccc1-c1cccc(NC(=O)c2ccccc2)c1	99.7

QUERY: Dear colleague, I am looking for the recorded % serum binding of the following compound: "Cc1cc(F)ccc1-c1cccc(-c2cn(-c3ccncc3)nn2)c1"
RESULT: 94.6

QUERY: I would be grateful if you could share the reported % serum binding for "c1ccc(-c2cccc(-c3cn(-c4ccncc4)nn3)c2)cc1" .
RESULT: 99.7

QUERY: Fill in the blank: the reported % serum binding of "Cc1cc(F)ccc1-c1cccc(Nc2ccccc2)n1" is ____.
RESULT: 100
